# Test system: EKVX NSCLC
# method.description: NCI-60 one-dose screen, 48 h (100 = growth as untreated, 0 = no growth, -100 = all killed)
# applied.conditions: 10 µM
The panel holds about 83,000 compounds, 20% with a hit somewhere; the sample as a whole holds those more often.

{"compound": "Nc1nccc(Nc2ccccc2)n1", "target.or.system": "EKVX NSCLC", "display.unit": "%", "growth": 107}
{"compound": "COc1ccc(-c2csc(NC(=O)CSc3nc(C)c(-c4ccccc4)n3Nc3ccccc3)n2)cc1", "target.or.system": "EKVX NSCLC", "display.unit": "%", "growth": 38.3}
{"compound": "O=C(CC(C(=O)c1ccccc1)N1CCOCC1)c1ccccc1 (stereo unspecified)", "target.or.system": "EKVX NSCLC", "display.unit": "%", "growth": 99.2}
{"compound": "COc1ccc2c(c1)C(=O)c1c-2c(OCCN2CCCCC2)nc2ccc(OC)cc12", "target.or.system": "EKVX NSCLC", "display.unit": "%", "growth": 39.6}
{"compound": "COc1cc(/C=N/NC(=O)c2ccccc2Nc2ccnc(C(F)(F)F)c2)ccc1O", "target.or.system": "EKVX NSCLC", "display.unit": "%", "growth": 106}
{"compound": "O=C(Nc1ccncc1)C(=O)c1cn(S(=O)(=O)c2cccc(Cl)c2)c2ccccc12", "target.or.system": "EKVX NSCLC", "display.unit": "%", "growth": 52.3}

* * *

# System: TK-10 renal
# method.description: NCI-60 one-dose screen, 48 h (100 = growth as untreated, 0 = no growth, -100 = all killed)
# applied.conditions: 10 µM
# Description: Growth inhibition of the TK-10 human tumor cell line is measured as a screen for anti-cancer activity. Cells are grown in 96 well plates and exposed to the test compound for 48 hours. Compounds are tested at a single concentration, which is 10^-5 M for most compounds. The reported endpoint is percent growth (GI% or GIPRCNT), where numbers from 0 - 100% represent growth inhibition, and numbers from -100% - 0 represent cell death. For example, a value of 40 represents 60% growth inhibition. […]
Compounds without any hit were thinned out: in the full panel of roughly 83,000, 20% have a hit.

{"compound": "Cc1nc2oc3ccccc3c(=O)c2cc1C(=O)NCc1ccccc1", "growth [%]": 87.6}
{"compound": "CCN(CC)CCSCCCNc1c2ccc(Cl)cc2nc2ccc(OC)cc12", "growth [%]": -4.3}
{"compound": "O=C1Nc2ccc(Cl)cc2/C1=C\\c1c(-c2ccc(Cl)cc2)nc2sc(C3CC3)nn12", "growth [%]": 52.9}
{"compound": "O=C(Nc1ccncc1)C(=O)c1cn(S(=O)(=O)c2ccc(F)cc2)c2ccccc12", "growth [%]": 79}
{"compound": "COc1ccc(OC)c2c1C(=O)CC2C (stereo not given)", "growth [%]": 118}
{"compound": "CCN(CC)CCCC(C)Nc1ccc2ccc(Cl)cc2n1 (stereo not given)", "growth [%]": 100}
{"compound": "c1ccc(C(NC2CC3CCC2C3)c2ccccc2)cc1 (stereo not given)", "growth [%]": 95.9}
{"compound": "COc1ccc(Nc2cc(C)nc(NCCCNc3ccnc4cc(Cl)ccc34)n2)cc1", "growth [%]": -83.9}
{"compound": "O=C(CC(C(=O)c1ccccc1)N1CCOCC1)c1ccccc1 (stereo not given)", "growth [%]": 90.8}
{"compound": "CCCCCCCCCCCCCCCC(=O)OC1[C@@H](OC(=O)CCCCCCCCCCCCCCC)[C@@H](C(=O)N[C@@H](CCCCN)C(=O)OC)O[C@H]1n1cnc2c(=O)[nH]c(NC(=O)C(C)C)nc21 (stereo not given in full)", "growth [%]": 101}
